Target: T1, VLA-4 (integrin alpha4 beta1) on the human B cell line Ramos (human, UniProt P13612 34-1032; P05556 21-798)
T1 construct: whole, on cells; also called α4β1; VLA-4-expressing cells
T1 sequence (P13612 34-1032, chain 1 of 2): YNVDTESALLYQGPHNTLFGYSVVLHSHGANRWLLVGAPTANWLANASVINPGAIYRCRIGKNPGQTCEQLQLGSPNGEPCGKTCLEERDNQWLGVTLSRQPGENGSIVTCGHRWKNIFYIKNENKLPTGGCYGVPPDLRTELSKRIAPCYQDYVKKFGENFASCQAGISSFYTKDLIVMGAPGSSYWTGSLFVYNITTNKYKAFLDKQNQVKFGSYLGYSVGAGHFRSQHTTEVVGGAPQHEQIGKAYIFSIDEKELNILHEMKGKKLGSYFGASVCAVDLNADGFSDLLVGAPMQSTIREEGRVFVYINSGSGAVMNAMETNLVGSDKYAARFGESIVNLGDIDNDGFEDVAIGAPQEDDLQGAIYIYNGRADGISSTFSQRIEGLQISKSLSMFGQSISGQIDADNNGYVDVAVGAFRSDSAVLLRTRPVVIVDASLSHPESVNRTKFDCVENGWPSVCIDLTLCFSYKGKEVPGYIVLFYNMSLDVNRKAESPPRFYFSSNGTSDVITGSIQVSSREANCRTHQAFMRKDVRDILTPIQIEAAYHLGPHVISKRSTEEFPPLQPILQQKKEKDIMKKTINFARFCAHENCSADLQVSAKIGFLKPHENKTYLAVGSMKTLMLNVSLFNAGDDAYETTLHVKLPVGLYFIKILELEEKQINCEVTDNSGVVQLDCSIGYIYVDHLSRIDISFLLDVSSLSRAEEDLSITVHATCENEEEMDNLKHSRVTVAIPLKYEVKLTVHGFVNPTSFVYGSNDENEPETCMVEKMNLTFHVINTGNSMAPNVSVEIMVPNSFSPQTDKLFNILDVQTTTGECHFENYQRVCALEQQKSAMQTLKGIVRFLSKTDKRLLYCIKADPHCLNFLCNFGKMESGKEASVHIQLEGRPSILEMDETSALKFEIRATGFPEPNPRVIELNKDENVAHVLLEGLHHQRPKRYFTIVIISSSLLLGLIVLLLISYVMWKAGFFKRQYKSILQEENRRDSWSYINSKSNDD
T1 sequence (P05556 21-798, chain 2 of 2): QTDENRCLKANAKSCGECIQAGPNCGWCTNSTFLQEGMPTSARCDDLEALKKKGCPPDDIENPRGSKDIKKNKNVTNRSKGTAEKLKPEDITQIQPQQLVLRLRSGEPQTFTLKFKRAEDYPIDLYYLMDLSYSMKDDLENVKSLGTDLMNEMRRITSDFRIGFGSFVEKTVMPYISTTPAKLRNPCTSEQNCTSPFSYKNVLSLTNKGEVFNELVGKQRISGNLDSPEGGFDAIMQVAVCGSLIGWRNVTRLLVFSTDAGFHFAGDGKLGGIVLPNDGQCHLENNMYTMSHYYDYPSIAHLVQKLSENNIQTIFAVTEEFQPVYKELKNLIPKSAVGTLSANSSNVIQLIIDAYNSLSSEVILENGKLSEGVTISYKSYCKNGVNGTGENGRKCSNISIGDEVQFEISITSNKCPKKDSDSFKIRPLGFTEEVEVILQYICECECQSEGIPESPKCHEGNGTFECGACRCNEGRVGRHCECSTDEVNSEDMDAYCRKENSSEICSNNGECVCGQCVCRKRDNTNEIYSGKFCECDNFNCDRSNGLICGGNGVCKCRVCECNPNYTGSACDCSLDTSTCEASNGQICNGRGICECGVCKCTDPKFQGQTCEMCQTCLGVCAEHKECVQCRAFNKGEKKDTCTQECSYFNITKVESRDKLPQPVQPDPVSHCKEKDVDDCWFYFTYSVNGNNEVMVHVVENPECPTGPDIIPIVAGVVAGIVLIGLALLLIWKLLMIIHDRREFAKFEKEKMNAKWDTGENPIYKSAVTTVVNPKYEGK
Assay: adhesion assay: inhibition of Ramos cell binding to immobilized rsVCAM1 (n = 2)
MEASUREMENT LABEL: IC50 (µg/mL)
The answer is to be given in µg/mL; state only the numeric part.

### Prompt What IC50 value was documented for this binder, Stage 3 KRS humanized anti-VLA-4 antibody with VK1 (DQL) light chain (antibody, V domains shown, Human IgG1 or IgG4 / kappa; also called VH-KRS) VH: QVQLQESGPGLVRPSQTLSLTCTVSGFNIKDTYMHWVKQRPGRGLEWIGRIDPASGDTKYDPKFQVRVTMLVDTSSNQFSLRLSSVTAADTAVYYCADGMWVSTGYALDFWGQGTTVTVSS VL: DIQLTQSPSSLSASVGDRVTITCKASQSVTNDVAWYQQKPGKAPKLLIYYASNRYTGVPSRFSGSGSGTDFTFTISSLQPEDIATYYCQQDYSSPYTFGQGTKVEIKR ?
### Response 0.05

Cited source: patent US20030185819A1
